- measured.target: T1, cynomolgus monkey TLR4 expressed on stably transfected CHO-K1 cells (cynomolgus monkey, UniProt Q9TSP2 24-826 (Papio anubis entry))
- T1 construct: Transfected alone; also called CHO cells expressing the cynomolgus monkey TLR4
- T1 chain: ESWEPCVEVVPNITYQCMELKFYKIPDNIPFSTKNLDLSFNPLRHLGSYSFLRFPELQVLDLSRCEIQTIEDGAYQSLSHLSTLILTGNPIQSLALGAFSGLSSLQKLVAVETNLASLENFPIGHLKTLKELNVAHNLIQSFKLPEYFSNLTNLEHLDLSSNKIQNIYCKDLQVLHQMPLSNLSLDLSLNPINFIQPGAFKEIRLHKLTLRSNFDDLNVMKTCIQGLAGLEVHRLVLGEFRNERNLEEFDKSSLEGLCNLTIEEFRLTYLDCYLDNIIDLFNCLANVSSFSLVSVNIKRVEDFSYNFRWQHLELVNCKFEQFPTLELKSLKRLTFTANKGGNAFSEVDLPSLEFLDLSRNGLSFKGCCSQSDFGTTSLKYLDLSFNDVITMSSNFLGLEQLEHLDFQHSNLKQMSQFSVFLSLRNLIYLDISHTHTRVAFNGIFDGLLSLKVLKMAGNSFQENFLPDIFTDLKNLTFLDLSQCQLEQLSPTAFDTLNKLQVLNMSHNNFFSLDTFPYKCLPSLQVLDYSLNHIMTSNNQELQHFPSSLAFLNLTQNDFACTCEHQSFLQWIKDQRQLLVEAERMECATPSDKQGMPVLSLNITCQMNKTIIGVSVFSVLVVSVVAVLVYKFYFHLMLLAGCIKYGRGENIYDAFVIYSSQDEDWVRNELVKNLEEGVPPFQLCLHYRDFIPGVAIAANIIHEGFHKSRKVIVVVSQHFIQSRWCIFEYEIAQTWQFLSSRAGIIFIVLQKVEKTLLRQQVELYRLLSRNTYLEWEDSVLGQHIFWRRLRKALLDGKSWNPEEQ
- protocol.summary: summary grade (species binding potential); assay not given
measured.attribute: binding result

# binder, measured.attribute, value.reported
measured = [
    ("1E11.E1 antibody (IgG1) (antibody, V domains shown) VH: QVQLQESGPGLVKPSDTLSLTCAVSGYSITGGYSWHWIRQPPGKGLEWMGYIHYSGYTDFNPSLKTRITISRDTSKNQFSLKLSSVTAVDTAVYYCARKDSGNYFPYWGQGTLVTVSS VL: EIVLTQSPDFQSVTPKEKVTITCRASQSISDHLHWYQQKPDQSPKLLIKYASHAISGVPSRFSGSGSGTDFTLTINSLEAEDAATYYCQQGNDFPVTFGGGTKVEIK", "binding result", "binds"),
    ("1E11.C6 antibody (IgG1) (antibody, V domains shown) VH: QVQLQESGPGLVKPSDTLSLTCAVSGYPIGGGYSWHWIRQPPGKGLEWMGYIHYSGYTDFNPSLKTRITISRDTSKNQFSLKLSSVTAVDTAVYYCARKDSGNYFPYWGQGTLVTVSS VL: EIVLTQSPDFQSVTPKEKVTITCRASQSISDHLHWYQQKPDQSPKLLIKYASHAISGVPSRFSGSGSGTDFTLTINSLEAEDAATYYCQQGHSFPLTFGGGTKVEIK", "binding result", "binds"),
]
